Tested on: SREBP
Assay: SREBP induction in human liver (HepG2) cells, RT-PCR
Assay type: cell-based
Details: human, HepG2 cells (human liver carcinoma); 300 nM; HepG2; Table 5; read-out: Safety SREBP mRNA fold induction at 300 nM
endpoint: fold induction at 0.3 µM
Number only, no unit.

Consider the worked cases shown below.
Cc1cc2c(cc1C1(c3ncc(C(=O)O)cn3)CC1)C(C)(C)CCC2(C)C [drawing 63]; 1.17
CCCN(c1cc(C(C)(C)C)cc(C(C)(C)C)c1)c1ncc(C(=O)O)cn1; 1.25
C=C(c1ccc(C(=O)O)cc1)c1cc2c(cc1C)C(C)(C)CCC2(C)C [drawing 61]; 2.23
CCCN(c1cc(C(C)(C)C)cc(C(C)(C)C)c1)c1ccc(C(=O)O)cn1 [drawing 77]; 2.15
CCCCN(c1cc(C(C)(C)C)cc(C(C)(C)C)c1)c1ccc(C(=O)O)cn1 [drawing 83]; 5.6

Entry CCOc1c(N(CC)c2ccc(C(=O)O)cc2)cc(C(C)(C)C)cc1C(C)(C)C [drawing 67] ; fold induction at 0.3 µM = 1.59

# fold induction at 0.3 µM (compound: CCN(c1ccc(C(=O)O)cc1)c1cc(C(C)(C)C)c(OC)c(C(C)(C)C)c1 [drawing 81] ) is 1.63

Noted for Cc1ccc(C(C)(C)C)cc1N(CC(C)C)c1ccc(C(=O)O)cn1 : its fold induction at 0.3 µM reads 4.93

Reported fold induction at 0.3 µM of C=C(c1ccc(C(=O)O)cc1)c1cc(C(C)(C)C)cc(C(C)(C)C)c1 [drawing 76] : 1.12

====

Molecular target: human RXRa (Homo sapiens)
Sequence (P19793 1-462): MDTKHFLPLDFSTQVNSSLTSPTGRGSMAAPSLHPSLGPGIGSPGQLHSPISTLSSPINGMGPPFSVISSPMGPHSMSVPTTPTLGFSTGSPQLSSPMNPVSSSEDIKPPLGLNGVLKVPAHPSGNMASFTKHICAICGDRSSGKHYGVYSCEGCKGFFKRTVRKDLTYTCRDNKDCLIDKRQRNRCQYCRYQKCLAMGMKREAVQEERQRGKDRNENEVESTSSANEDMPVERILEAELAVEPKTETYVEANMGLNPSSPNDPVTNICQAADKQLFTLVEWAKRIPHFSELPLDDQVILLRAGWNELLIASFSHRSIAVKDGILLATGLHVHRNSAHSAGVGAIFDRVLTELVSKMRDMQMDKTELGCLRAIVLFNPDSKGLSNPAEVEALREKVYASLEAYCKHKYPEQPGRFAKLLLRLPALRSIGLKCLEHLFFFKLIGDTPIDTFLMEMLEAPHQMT
Assay: RXR activation luciferase reporter assay
Settings: Table 6; read-out: RXRα activation (EC50)
endpoint: EC50

Here is how some compounds turned out for EC50.
Cc1cc2c(cc1-n1c(C(F)(F)F)nc3cc(C(=O)O)ccc31)C(C)(C)CCC2(C)C [reference compound]; 1 to 25 nM
CC(/C=C/[C@@H]1C[C@]1(C)c1cc2c(cc1C)C(C)(C)CCC2(C)C)=C\C(=O)O [reference compound]; 1 to 25 nM
CCN(c1ccc2c(c1)C(C)(C)CCC2(C)C)c1ccc(C(=O)O)cn1 [reference compound]; 1 to 25 nM

Value of measured EC50 for the entry Cc1cc2c(cc1C1(c3ncc(C(=O)O)cn3)CC1)C(C)(C)CCC2(C)C [drawing 98, reference compound] : 25 to 50 nM

For this compound ( CCN(c1ccc(OCC(C)C)c(C(C)C)c1)c1ccc(C(=O)O)cn1 [reference compound] ), measured EC50 is 50 to 200 nM

====

System: inducible nitric oxide synthase (iNOS)
Assay: iNOS suppression / NO assay in LPS-stimulated macrophages or RAW264.7 cells (Griess reaction)
Format: cell-based, mouse
Details: Mus musculus, RAW264.7, read-out: NO Assay
endpoint: activity at 0.5 µM (%)
Could you give me the number in %? Just the number is fine.

Some solved entries appear below for comparison.
CCN(c1cc(C(C)(C)C)cc(C(C)(C)C)c1)c1ncc(C(=O)O)cn1 [Compound 10]; 19
CC(C)(C)c1cc(-n2c(C(F)(F)F)nc3cc(C(=O)O)ccc32)cc(C(C)(C)C)c1 [Compound 7]; 23.6
CCN(c1ccc(C(=O)O)cn1)c1cc(C(C)(C)C)ccc1C [Compound 12]; 16.7
CCN(c1cc(C(F)(F)F)cc(C(F)(F)F)c1)c1ccc(C(=O)O)cn1 [Compound 15]; 27.9
CCN(c1cc(C(C)(C)C)cc(C(C)(C)C)c1)c1ccc(C(=O)O)cn1 [Compound 9]; 26.8
CC(C)(C)c1cc(N(CC2CC2)c2ccc(C(=O)O)cn2)cc(C(C)(C)C)c1 [Compound 14]; 25.9
CCN(c1ccc(C(=O)O)cc1)c1cc(C(C)(C)C)cc(C(C)(C)C)c1 [Compound 8]; 31.5

For the next question, use this compound.
get_value(item= C=C(c1ccc(C(=O)O)cc1)c1cc(C(C)(C)C)cc(C(C)(C)C)c1 [Compound 3] , readout=activity at 0.5 µM) returns 19.8

====

Test system: PD-L1
Assay: PD-L1 induction in macrophages or RAW264.7 cells with cancer cell conditioned media (flow cytometry)
Type: cell-based, mouse
Conditions: 100 nM; Table 2; Control 39.8; higher numbers indicate better upregulation
endpoint: PD-L1
Provide a numeric answer; units are not to be included.

CC(C)(C)c1cc(-n2c(C(F)(F)F)nc3cc(C(=O)O)ccc32)cc(C(C)(C)C)c1; 44.2
CCCN(c1cc(C(C)(C)C)cc(C(C)(C)C)c1)c1ccc(C(=O)O)cn1; 67.9
C=C(c1ccc(C(=O)O)cc1)c1cc2c(cc1C)C(C)(C)CCC2(C)C; 58.5

// next entry
get_value(item= CC(C)CN(c1cc(C(C)(C)C)cc(C(C)(C)C)c1)c1ccc(C(=O)O)cn1 , readout=PD-L1) returns 58.5

====

Listing of recorded SREBP by entry.
Tested on: SREBP
Experiment: SREBP induction in human liver (HepG2) cells, RT-PCR
Format: cell-based
Parameters: key: fold induction vs DMSO control
Conditions: 300 nM; Control 1.00; lower numbers indicate better safety; Table 2
Give the figure only, with no unit attached.

Example entries begin here.
CCN(c1ccc(C(=O)O)cn1)c1cc(C(C)(C)C)ccc1C [Compound 12]; 1.69
CCN(c1cc(C(C)(C)C)cc(C(C)(C)C)c1)c1ncc(C(=O)O)cn1 [Compound 10]; 1.44
CCN(c1cc(C(F)(F)F)cc(C(F)(F)F)c1)c1ccc(C(=O)O)cn1 [Compound 15]; 1.11
CCN(c1cc(C(C)(C)C)cc(C(C)(C)C)c1)c1ccc(C(=O)O)cn1 [Compound 9]; 2.70

So the reported SREBP for CC(C)CN(c1cc(C(C)(C)C)cc(C(C)(C)C)c1)c1ccc(C(=O)O)cn1 [Compound 18] , on SREBP, turned out to be 1.52

SREBP data for C=C(c1ccc(C(=O)O)cc1)c1cc2c(cc1C)C(C)(C)CCC2(C)C [Bexarotene, bexarotene] ; its SREBP: 2.13

Value (SREBP, SREBP) for record CC(C)(C)c1cc(N(CC2CC2)c2ccc(C(=O)O)cn2)cc(C(C)(C)C)c1 [Compound 14] = 2.37

Measured SREBP for this entry CCCCN(c1cc(C(C)(C)C)cc(C(C)(C)C)c1)c1ccc(C(=O)O)cn1 [Compound 19] on SREBP: 4.77

====

The molecules listed here are annotated with their logD.
Test: LogD at pH 7.4
Type: physicochemical
Conditions: pH 7.4 buffer
Please give the numeric answer without any surrounding text.

C=C(c1ccc(C(=O)O)cc1)c1cc(C(C)C)c(OCC(C)C)cc1C [drawing 111]; 3.5

Notebook: CCN(c1cc(C(F)(F)F)cc(C(F)(F)F)c1)c1ccc(C(=O)O)cn1 [drawing 119] , logD read as 1.5

Consider Cc1cc(OCC(C)C)c(C(C)C)cc1C1(c2ccc(C(=O)O)cn2)CC1 . Its measured logD is 2.6

logD for CC(C)(C)c1cc(N(CC2CC2)c2ccc(C(=O)O)cn2)cc(C(C)(C)C)c1 [drawing 118] is 3.4

// field: logD; key: CCN(c1cc(C(C)(C)C)cc(C(C)(C)C)c1)c1ncc(C(=O)O)cn1 [drawing 106] ; value = 2.3

Record CCN(c1ccc(C(=O)O)cc1)c1cc(C(C)C)c(OCC(C)C)cc1C [drawing 120] , field logD: 3.8

Query CCN(c1cc(C(C)(C)C)cc(C(C)(C)C)c1)c1ccc(C(=O)O)cn1 [drawing 105] yields logD of 2.9

====

Target: human RXRa (Homo sapiens, UniProt P19793)
Assay: RXR activation luciferase reporter assay
Format: cell-based
Conditions: 100 nM; luciferase; Control 0; higher numbers indicate higher potency
endpoint: RXR assay
Returns: the value as a bare number; no unit string appended.

CCN(c1ccc(C(=O)O)cc1)c1cc(C(C)(C)C)cc(C(C)(C)C)c1 [Compound 8]; 1009
CCN(c1cc(C(C)(C)C)cc(C(C)(C)C)c1)c1ncc(C(=O)O)cn1 [Compound 10]; 1007
C/C(=C/C=C/C(C)=C/C(=O)O)c1cc(C(C)(C)C)cc(C(C)(C)C)c1OCC(F)F [LG101506, reference compound]; 1077
CC(C)CN(c1cc(C(C)(C)C)cc(C(C)(C)C)c1)c1ccc(C(=O)O)cn1 [Compound 18]; 12881
CCCN(c1cc(C(C)(C)C)cc(C(C)(C)C)c1)c1ccc(C(=O)O)cn1 [Compound 13]; 16063

Summary for this molecule, CCCCN(c1cc(C(C)(C)C)cc(C(C)(C)C)c1)c1ccc(C(=O)O)cn1 [Compound 19] : RXR assay is 13422

The molecule listed as C=C(c1ccc(C(=O)O)cc1)c1cc(C(C)(C)C)cc(C(C)(C)C)c1 [Compound 3] shows RXR assay equal to 523
